Every entry's value here was drawn from paper PMC9340783.

- System name: human GITR on 293F‐hGITR cells (Homo sapiens (Human)., UniProt Q9Y5U5-1)
- Sequence (Q9Y5U5 26-241): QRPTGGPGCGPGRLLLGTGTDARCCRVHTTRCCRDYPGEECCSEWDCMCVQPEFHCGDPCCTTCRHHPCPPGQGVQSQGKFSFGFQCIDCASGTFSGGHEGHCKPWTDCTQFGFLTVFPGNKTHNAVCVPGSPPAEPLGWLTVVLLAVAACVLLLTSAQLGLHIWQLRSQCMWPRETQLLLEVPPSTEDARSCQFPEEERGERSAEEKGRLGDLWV
- Method description: cell-based or functional assay
Assay readout: NF‐ĸB luciferase reporter assay, No crosslinking, Top ratio (fold)
Form entry: value (fold) — number only.

Binder: hab064 (antibody, V domains shown, 3503‐hab064‐VH; 3503‐hab064‐Vk; Whole antibody, human IgG1 heavy chain constant region, human kappa light chain constant region; source: FreeStyle 293F, transiently co-transfected, purified from culture supernatant) VH: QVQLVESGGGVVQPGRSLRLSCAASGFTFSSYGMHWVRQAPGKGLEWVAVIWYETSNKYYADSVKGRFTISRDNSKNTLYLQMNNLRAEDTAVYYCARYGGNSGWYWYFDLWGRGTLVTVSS VL: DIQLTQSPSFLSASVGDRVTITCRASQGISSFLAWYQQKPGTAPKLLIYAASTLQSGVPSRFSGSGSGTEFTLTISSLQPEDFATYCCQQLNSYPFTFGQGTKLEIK
Display unit: fold
Recorded number: 10

Binder: hab076e1 (antibody, V domains shown, as the VH of m15 (3503‐hab076‐VH); 3503‐hab076‐Vk(C2Y); the substitution is against the VL of m15 (Cys in FR3 of VL); position not given; Whole antibody, human IgG1 heavy chain constant region, human kappa light chain constant region; source: FreeStyle 293F, transiently co-transfected, purified from culture supernatant) VH: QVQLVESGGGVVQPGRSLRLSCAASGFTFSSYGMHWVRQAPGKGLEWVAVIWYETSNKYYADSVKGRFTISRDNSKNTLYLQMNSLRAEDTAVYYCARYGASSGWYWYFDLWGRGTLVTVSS VL: DIQLTQSPSFLSASVGDRVTITCRASQGISSYLAWYQQKPGKAPKLLIYAASTLQSGVPSRFSGSGSGTEFTLTISSLQPEDFATYYCQQLNSYPFTFGQGTKLEIK
Display unit: fold
Recorded number: 8

Binder: hab076 (antibody, V domains shown, 3503‐hab076‐VH; 3503‐hab076‐Vk; Whole antibody, human IgG1 heavy chain constant region, human kappa light chain constant region; source: FreeStyle 293F, transiently co-transfected, purified from culture supernatant) VH: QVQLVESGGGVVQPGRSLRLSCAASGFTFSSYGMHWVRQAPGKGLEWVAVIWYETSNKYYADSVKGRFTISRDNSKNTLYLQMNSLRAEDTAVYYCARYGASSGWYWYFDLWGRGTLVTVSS VL: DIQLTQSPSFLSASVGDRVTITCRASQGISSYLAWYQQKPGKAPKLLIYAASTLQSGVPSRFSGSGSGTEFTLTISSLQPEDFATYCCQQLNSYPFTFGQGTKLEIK
Display unit: fold
Recorded number: 9

Binder: hab070 (antibody, V domains shown, 3503‐hab070‐VH; 3503‐hab070‐Vk; Whole antibody, human IgG1 heavy chain constant region, human kappa light chain constant region; source: FreeStyle 293F, transiently co-transfected, purified from culture supernatant) VH: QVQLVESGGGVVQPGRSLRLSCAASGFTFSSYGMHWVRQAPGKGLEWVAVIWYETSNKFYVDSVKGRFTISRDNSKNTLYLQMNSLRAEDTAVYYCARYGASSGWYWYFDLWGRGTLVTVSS VL: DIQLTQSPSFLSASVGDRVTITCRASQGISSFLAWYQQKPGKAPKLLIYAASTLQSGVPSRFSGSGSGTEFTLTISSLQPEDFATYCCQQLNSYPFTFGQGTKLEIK
Display unit: fold
Recorded number: 9

Binder: mAb070 (antibody, V domains shown, as the VH of m14; as the VL of m14; Human-murine chimeric antibody from H2L2 mice: human variable regions, rat constant regions; source: hybridoma cell culture supernatant, purified (Protein A)) VH: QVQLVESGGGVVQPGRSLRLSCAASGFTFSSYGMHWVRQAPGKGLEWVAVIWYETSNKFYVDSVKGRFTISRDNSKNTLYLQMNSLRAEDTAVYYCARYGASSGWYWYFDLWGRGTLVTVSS VL: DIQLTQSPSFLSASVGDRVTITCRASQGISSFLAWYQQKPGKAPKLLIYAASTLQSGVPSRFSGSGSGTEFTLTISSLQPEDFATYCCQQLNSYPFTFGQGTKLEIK
Display unit: fold
Recorded number: 10

Binder: hab070e1 (antibody, V domains shown, as the VH of m14 (3503‐hab070‐VH); 3503‐hab070‐Vk(C2Y); the substitution is against the VL of m14 (Cys in FR3 of VL); position not given; Whole antibody, human IgG1 heavy chain constant region, human kappa light chain constant region; also called hab70e1; source: FreeStyle 293F, transiently co-transfected, purified from culture supernatant) VH: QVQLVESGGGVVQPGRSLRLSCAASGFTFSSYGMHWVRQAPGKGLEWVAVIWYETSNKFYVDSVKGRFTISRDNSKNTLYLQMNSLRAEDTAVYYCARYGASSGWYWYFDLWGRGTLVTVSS VL: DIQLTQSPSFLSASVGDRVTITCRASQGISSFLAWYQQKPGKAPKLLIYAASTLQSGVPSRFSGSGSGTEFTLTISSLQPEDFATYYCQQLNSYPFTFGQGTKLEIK
Display unit: fold
Recorded number: 7

State its NF‐ĸB luciferase reporter assay, No crosslinking, Top ratio: hab064e1 (antibody, V domains shown, 3503‐hab064‐VH(N2S); the substitution is against the VH of m13; position not given; 3503‐hab064‐Vk(T2K/C2Y); the substitutions are against the VL of m13; positions not given; Whole antibody, human IgG1 heavy chain constant region, human kappa light chain constant region; source: FreeStyle 293F, transiently co-transfected, purified from culture supernatant) VH: QVQLVESGGGVVQPGRSLRLSCAASGFTFSSYGMHWVRQAPGKGLEWVAVIWYETSNKYYADSVKGRFTISRDNSKNTLYLQMNSLRAEDTAVYYCARYGGNSGWYWYFDLWGRGTLVTVSS VL: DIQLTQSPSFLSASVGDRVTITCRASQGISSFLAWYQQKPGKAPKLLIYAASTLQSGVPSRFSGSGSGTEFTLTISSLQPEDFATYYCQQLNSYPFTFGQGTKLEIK
11
